- systemName: Angiotensin-converting enzyme (Oryctolagus cuniculus, UniProt P12822)
- Sequence (P12822 whole entry): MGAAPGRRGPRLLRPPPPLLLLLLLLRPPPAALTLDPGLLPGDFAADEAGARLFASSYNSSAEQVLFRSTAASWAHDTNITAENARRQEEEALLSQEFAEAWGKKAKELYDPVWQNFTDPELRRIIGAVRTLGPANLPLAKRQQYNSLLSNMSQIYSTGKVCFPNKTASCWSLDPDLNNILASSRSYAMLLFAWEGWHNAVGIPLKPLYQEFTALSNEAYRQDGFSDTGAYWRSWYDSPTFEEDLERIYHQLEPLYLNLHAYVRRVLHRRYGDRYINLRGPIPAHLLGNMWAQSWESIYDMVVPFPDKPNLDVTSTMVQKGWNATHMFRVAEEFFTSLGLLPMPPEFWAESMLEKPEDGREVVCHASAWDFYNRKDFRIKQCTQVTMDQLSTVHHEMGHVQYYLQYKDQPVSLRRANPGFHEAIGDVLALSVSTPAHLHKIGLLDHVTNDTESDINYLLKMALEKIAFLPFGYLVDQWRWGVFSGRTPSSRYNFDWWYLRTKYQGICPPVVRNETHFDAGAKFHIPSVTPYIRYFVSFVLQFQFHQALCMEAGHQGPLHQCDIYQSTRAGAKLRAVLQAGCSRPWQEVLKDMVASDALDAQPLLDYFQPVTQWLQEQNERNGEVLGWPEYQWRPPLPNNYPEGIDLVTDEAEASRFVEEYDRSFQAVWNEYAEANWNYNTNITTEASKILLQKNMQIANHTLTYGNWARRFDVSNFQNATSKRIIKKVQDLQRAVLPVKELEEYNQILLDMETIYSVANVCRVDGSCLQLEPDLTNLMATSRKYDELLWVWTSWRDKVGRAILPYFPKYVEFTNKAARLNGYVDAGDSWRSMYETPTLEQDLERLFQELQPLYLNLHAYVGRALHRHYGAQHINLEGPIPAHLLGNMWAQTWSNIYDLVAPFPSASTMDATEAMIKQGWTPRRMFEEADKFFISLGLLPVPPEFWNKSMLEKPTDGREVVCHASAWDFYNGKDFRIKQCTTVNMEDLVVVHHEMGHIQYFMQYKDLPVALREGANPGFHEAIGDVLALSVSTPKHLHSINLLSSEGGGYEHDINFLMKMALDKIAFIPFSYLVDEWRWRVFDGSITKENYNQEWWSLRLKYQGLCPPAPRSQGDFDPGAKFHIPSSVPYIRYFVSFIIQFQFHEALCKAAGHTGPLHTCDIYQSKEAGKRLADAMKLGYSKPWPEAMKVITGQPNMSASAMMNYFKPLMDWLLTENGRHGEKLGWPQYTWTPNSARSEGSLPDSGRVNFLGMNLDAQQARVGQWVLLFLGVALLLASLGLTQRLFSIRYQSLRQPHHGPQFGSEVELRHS
- assayDetails: Tested in vitro for its inhibitory activity against angiotensin converting enzyme
observable: log10 IC50 (log10 of the value in nM)
All values: log10 IC50 [nM].

A selection of reference data follows.
[[record]]
smiles = "Cc1ccc(CSC[C@@H](NC(=O)[C@@H](CS)Cc2ccc(-c3ccccc3)cc2)C(=O)O)cc1"
systemname = "Angiotensin-converting enzyme (Oryctolagus cuniculus, UniProt P12822)"
observedmeasurement = 2.26

[[record]]
smiles = "Cc1ccc(CSC[C@@H](NC(=O)[C@@H](CS)Cc2ccccc2)C(=O)O)cc1"
systemname = "Angiotensin-converting enzyme (Oryctolagus cuniculus, UniProt P12822)"
observedmeasurement = 1.28

[[record]]
smiles = "COc1ccc(CSC[C@@H](NC(=O)[C@@H](CS)Cc2ccccc2)C(=O)O)cc1"
systemname = "Angiotensin-converting enzyme (Oryctolagus cuniculus, UniProt P12822)"
observedmeasurement = 1.98

[[record]]
smiles = "Cc1ccc(CSC[C@@H](NC(=O)[C@@H](CS)Cc2ccc3ccccc3c2)C(=O)O)cc1"
systemname = "Angiotensin-converting enzyme (Oryctolagus cuniculus, UniProt P12822)"
observedmeasurement = 2.66

[[record]]
smiles = "CSCC[C@@H](NC(=O)[C@@H](CS)Cc1ccccc1)C(=O)O"
systemname = "Angiotensin-converting enzyme (Oryctolagus cuniculus, UniProt P12822)"
observedmeasurement = 1.54


Continue with the next molecule.
Noted for O=C(N[C@H](CSCc1ccccc1)C(=O)O)[C@@H](CS)Cc1ccc(Cl)cc1 : its log10 IC50 reads 1.64
